Listing of entries alongside the reported IC50.
# Tested on: L. donovani infected macrophage cells
# procedureDetails: L. donovani infected macrophage assay
# Type: cell-based
# conditionNotes: Leishmania donovani, macrophages infected with L. donovani
endpointLabel: IC50 (µg/mL)

- smilesStructure: "Cc1nn(-c2ccc3c(N)ncnc3c2)c2c1C(=O)CC(C)(C)C2"
  endpointLabel: "IC50"
  units: "µg/mL"
  relationSymbol: "="
  numericReadout: 1.33
- smilesStructure: "COCCCNc1cc(-n2nc(C)c3c2CN(C(=O)NCc2ccccc2)CC3=O)ccc1C(N)=O"
  endpointLabel: "IC50"
  units: "µg/mL"
  relationSymbol: ">"
  numericReadout: 10
- smilesStructure: "COCCCNc1cc(-n2nc(C)c3c2CN(C(N)=O)CC3=O)ccc1C(N)=O"
  endpointLabel: "IC50"
  units: "µg/mL"
  relationSymbol: ">"
  numericReadout: 10
- smilesStructure: "COCCCNc1cc(-n2nc(C)c3c2CNCC3=O)ccc1C(N)=O"
  endpointLabel: "IC50"
  units: "µg/mL"
  relationSymbol: ">"
  numericReadout: 10
- smilesStructure: "COCCCNc1cc(-n2nc(C)c3c2CN(C(C)=O)CC3=O)ccc1C(N)=O"
  endpointLabel: "IC50"
  units: "µg/mL"
  relationSymbol: "="
  numericReadout: 1.06
- smilesStructure: "COCCCNc1cc(-n2nc(C)c3c2CN(C(=O)C2CCCC2)CC3=O)ccc1C(N)=O"
  endpointLabel: "IC50"
  units: "µg/mL"
  relationSymbol: "="
  numericReadout: 1.52
- smilesStructure: "COCCCNc1cc(-n2nc(C)c3c2CN(C(=O)C(C)C)CC3=O)ccc1C(N)=O"
  endpointLabel: "IC50"
  units: "µg/mL"
  relationSymbol: "="
  numericReadout: 3.54

----------
Listing of entries alongside the reported IC50.
# procedureDetails: Counterscreen for cytotoxicity
# Type: cell-based
# conditionNotes: mouse, J774 cells (murine macrophage cell line)
endpointLabel: IC50 (mg/L)

- compound: "COCCCNc1cc(NC2CC(C)(C)Cc3ncccc32)ccc1C(N)=O (stereo not shown)"
  relationSymbol: "="
  numericReadout: 6.75
- compound: "Cc1nn(-c2ccc3c(N)ncnc3c2)c2c1C(=O)CC(C)(C)C2"
  relationSymbol: ">"
  numericReadout: 50
- compound: "CCC(=O)N1CC(=O)c2c(C)nn(-c3ccc(C(N)=O)c(NCCCOC)c3)c2C1"
  relationSymbol: ">"
  numericReadout: 50
- compound: "COCCCNc1cc(-n2nc(C)c3c2CN(C(=O)COC)CC3=O)ccc1C(N)=O"
  relationSymbol: ">"
  numericReadout: 50
- compound: "COCCCNc1cc(-n2nc(C)c3c2CN(C(=O)C(C)C)CC3=O)ccc1C(N)=O"
  relationSymbol: "="
  numericReadout: 37.3
- compound: "COCCCNc1cc(-n2nc(C)c3c2CN(C(=O)NCc2ccccc2)CC3=O)ccc1C(N)=O"
  relationSymbol: ">"
  numericReadout: 50
- compound: "COCCCNc1cc(-n2nc(C)c3c2CN(S(C)(=O)=O)CC3=O)ccc1C(N)=O"
  relationSymbol: "="
  numericReadout: 25.5
